Values compiled from patent US20260184782A1.

// reported pKd for each item listed
- ASSAYED_TARGET: T1, recombinant human TIGIT (human, UniProt Q495A1 22-141, limits assumed)
- T1 construct: recombinant human TIGIT used in Carterra SPR; also called hTIGIT
- T1 sequence (looked up): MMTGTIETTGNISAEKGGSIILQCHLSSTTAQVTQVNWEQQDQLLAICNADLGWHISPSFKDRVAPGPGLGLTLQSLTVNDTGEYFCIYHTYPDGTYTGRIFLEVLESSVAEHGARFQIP
- TEST_SUMMARY: SPR Carterra, average
- Description: Binding affinities of VHH-Fc proteins to recombinant human TIGIT were measured by SPR using a Carterra instrument (Table 10A). […] Average values reported from measurements from 1-2 samples.
Scale explanation: pKd corresponds to minus log10 of a concentration expressed in moles per litre.

Query :: # query: pKd of entry TIGIT-SC56 (Fc fusion, VHH-Fc fusion in assay) VHH: EVQLVESGGGLVQPGGSLRLSCAASGNTFSGGFMGWFRQAPGKEREWVASVLRGGYTWYADSVKGRFTISADNSKNTAYLQMNSLKPEDTAVYYCAHSKGYNWFDPWGQGTLVTVSS
Result :: 7.57

Pending binder:
Query :: # query: pKd of entry TIGIT-SC151 (Fc fusion, VHH-Fc fusion in assay) VHH: EVQLVESGGGLVQPGGSLRLSCAASGFPFSIYPMGWFRQAPGKEREFVAAISASGTLRAYADSVKGRFTISADNSKNTAYLQMNSLKPEDTAVYYCARSSSWVRIFDYWGQGTLVTVSS
Result :: 7.77
